assay: Single oral dose ACTH challenge test in rats; assay type: in vivo, rat; conditions: rat, in vivo; male rats, at minimum effective dose 3 mg/kg oral; read-out: AUC up to the last measurable concentration (AUC0-t)
readout: AUC(0-t)

IN: Give its AUC(0-t) value. Item: CCOc1ccccc1-c1ccc(N2CCN(C(=O)C3(C(F)(F)F)CCC3)C[C@H]2CC)c(C(=O)N[C@@H]2CN3CCC2CC3)n1
OUT: 1400 ng·h/mL

====

test: Phase 1 SAD study, pharmacokinetics in healthy volunteers; type: in vivo, human; conditions: human, in vivo; single oral dose, at efficacious doses
readout: Tmax

IN: Give its Tmax value. Item: CCOc1ccccc1-c1ccc(N2CCN(C(=O)C3(C(F)(F)F)CCC3)C[C@H]2CC)c(C(=O)N[C@@H]2CN3CCC2CC3)n1
OUT: ~1 h
